- Method Notes: Solubility in ethanol by high performance liquid chromatography
- Experimental Context: organic solvent or mixture, thermodynamic from solid, Solubility, excess solid suspended in ethanol, shaken for 12 h, HPLC

- Compound: "CC(C)(C)C(O)(CCc1ccc(Cl)cc1)Cn1cncn1 (racemic) [crystal form 1]"
  solubility at 12 h [mg/mL]: 92.1
